target_or_test_system: P2X7R point mutant Y93A (Homo sapiens, UniProt Q99572, I21V/M24R/N16P/N25R/Q22R/R20V/S23N/T19I/Y26L/Y93A)
method_summary: Two-electrode voltage clamp of ATP-evoked currents in Xenopus oocytes
settings: EC90 ATP, mean ± S.E.M.
pIC50: −log10 of the molar value.
Recorded pIC50 values for a group of compounds are listed next.
measured_property: pIC50

[[record]]
compound = "Cl.Clc1cccc(-c2nnnn2Cc2cccnc2)c1Cl.O [A438079]"
test_result = 5.40

[[record]]
compound = "COc1ccc(CC(=O)NC(N=C(NC#N)Nc2cccc3ncccc23)C(C)(C)C)cc1OC (centres unmarked) [A740003]"
test_result = 7.00


====

target_or_test_system: chimeric P2X7/1 receptor 164–168 (Homo sapiens, UniProt Q99572, A166G/I21V/M24R/N16P/N25R/Q22R/R20V/S165F/S23N/T19I/V164I/Y26L)
Construct: expressed in transfected cells; host or cells: Xenopus laevis oocytes (cRNA injection)
method_summary: Two-electrode voltage clamp of ATP-evoked currents in Xenopus oocytes
Format: cell-based
settings: chimera 164–168; inhibition of EC90 ATP response
Recorded IC50 values for a group of molecules are listed next.
measured_property: IC50

[[record]]
molecule = "COc1ccc(CC(=O)NC(N=C(NC#N)Nc2cccc3ncccc23)C(C)(C)C)cc1OC (centres unmarked)"
measured_property = "IC50"
test_result = "0.398 µM"

[[record]]
molecule = "Cl.Clc1cccc(-c2nnnn2Cc2cccnc2)c1Cl.O"
measured_property = "IC50"
test_result = "10 µM"


====

target_or_test_system: P2X7R point mutant K297G (Homo sapiens, UniProt Q99572, I21V/K297G/M24R/N16P/N25R/Q22R/R20V/S23N/T19I/Y26L)
method_summary: Two-electrode voltage clamp of ATP-evoked currents in Xenopus oocytes
settings: EC90 ATP, mean ± S.E.M.
measured_property: IC50 (nM)

[[record]]
compound = "COc1ccc(CC(=O)NC(N=C(NC#N)Nc2cccc3ncccc23)C(C)(C)C)cc1OC (centres unmarked)"
units_label = "nM"
test_result = 12.6

[[record]]
compound = "Cl.Clc1cccc(-c2nnnn2Cc2cccnc2)c1Cl.O"
units_label = "nM"
test_result = 50.1


====

Recorded IC50 values for a group of compounds are listed next.
target_or_test_system: P2X7R point mutant A91C (Homo sapiens, UniProt Q99572, A91C/I21V/M24R/N16P/N25R/Q22R/R20V/S23N/T19I/Y26L)
Sequence (Q99572 1-595 N16P/T19I/R20V/I21V/Q22R/S23N/M24R/N25R/Y26L/A91C): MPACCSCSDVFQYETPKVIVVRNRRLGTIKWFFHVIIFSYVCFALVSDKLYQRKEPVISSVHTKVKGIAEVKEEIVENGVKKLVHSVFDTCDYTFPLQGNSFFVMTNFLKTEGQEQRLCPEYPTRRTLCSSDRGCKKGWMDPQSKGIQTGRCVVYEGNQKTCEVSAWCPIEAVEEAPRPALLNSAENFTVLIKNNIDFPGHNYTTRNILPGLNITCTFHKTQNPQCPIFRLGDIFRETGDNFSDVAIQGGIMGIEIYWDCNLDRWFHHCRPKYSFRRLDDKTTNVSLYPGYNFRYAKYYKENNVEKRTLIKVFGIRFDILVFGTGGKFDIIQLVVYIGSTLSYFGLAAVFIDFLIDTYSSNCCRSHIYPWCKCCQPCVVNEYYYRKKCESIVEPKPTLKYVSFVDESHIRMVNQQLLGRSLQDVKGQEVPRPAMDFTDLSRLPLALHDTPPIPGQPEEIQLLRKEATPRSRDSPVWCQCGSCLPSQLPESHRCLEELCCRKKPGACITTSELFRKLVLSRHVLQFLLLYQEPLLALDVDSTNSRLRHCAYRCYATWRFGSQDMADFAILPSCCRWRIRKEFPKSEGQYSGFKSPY
method_summary: cell-based
measured_property: IC50 (µM)

[[record]]
compound = "Cl.Clc1cccc(-c2nnnn2Cc2cccnc2)c1Cl.O [A438079]"
units_label = "µM"
test_result = 20

[[record]]
compound = "COc1ccc(CC(=O)NC(N=C(NC#N)Nc2cccc3ncccc23)C(C)(C)C)cc1OC (centres unmarked) [A740003]"
units_label = "µM"
test_result = 2.51


====

target_or_test_system: chimeric P2X7/1 receptor 105–114 (Homo sapiens, UniProt Q99572, E112P/G113K/I21V/K110V/L109I/M24R/N16P/N25R/Q22R/R20V/S23N/T19I/Y26L)
method_summary: Two-electrode voltage clamp of ATP-evoked currents in Xenopus oocytes
pIC50: −log10 of the molar value.
measured_property: pIC50

[[record]]
compound = "Cl.Clc1cccc(-c2nnnn2Cc2cccnc2)c1Cl.O"
measured_property = "pIC50"
test_result = 6.30

[[record]]
compound = "COc1ccc(CC(=O)NC(N=C(NC#N)Nc2cccc3ncccc23)C(C)(C)C)cc1OC (centres unmarked)"
measured_property = "pIC50"
test_result = 7.00


====

target_or_test_system: chimeric P2X7/1 receptor 112–118 (Homo sapiens, UniProt Q99572, E112P/E115T/G113K/I21V/L118Y/M24R/N16P/N25R/Q22R/R117G/R20V/S23N/T19I/Y26L)
method_summary: cell-based
measured_property: IC50 (nM)

[[record]]
compound = "COc1ccc(CC(=O)NC(N=C(NC#N)Nc2cccc3ncccc23)C(C)(C)C)cc1OC (centres unmarked)"
test_result = 251

[[record]]
compound = "Cl.Clc1cccc(-c2nnnn2Cc2cccnc2)c1Cl.O"
test_result = 3160


====

target_or_test_system: P2X7R mutant Insert G99 (Homo sapiens, UniProt Q99572, I21V/INS99D/M24R/N16P/N25R/Q22R/R20V/S23N/T19I/Y26L)
Sequence (Q99572 with tags, fused parts or gaps N16P/T19I/R20V/I21V/Q22R/S23N/M24R/N25R/Y26L/INS99D): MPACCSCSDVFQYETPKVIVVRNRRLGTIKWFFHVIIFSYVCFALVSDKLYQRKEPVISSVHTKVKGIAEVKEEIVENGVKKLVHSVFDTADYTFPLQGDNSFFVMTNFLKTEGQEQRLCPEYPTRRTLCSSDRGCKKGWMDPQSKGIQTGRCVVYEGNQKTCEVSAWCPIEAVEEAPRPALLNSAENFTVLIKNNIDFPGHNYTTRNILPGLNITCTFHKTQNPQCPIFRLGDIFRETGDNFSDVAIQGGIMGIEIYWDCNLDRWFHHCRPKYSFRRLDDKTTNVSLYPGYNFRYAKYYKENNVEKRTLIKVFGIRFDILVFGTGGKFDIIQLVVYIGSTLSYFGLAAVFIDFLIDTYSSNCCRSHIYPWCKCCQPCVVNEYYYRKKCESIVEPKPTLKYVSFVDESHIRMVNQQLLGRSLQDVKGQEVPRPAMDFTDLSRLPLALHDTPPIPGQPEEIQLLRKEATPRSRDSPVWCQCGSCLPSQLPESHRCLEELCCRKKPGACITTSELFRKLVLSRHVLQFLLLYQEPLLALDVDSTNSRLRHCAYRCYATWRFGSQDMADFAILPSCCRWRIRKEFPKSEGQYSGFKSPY
method_summary: Two-electrode voltage clamp of ATP-evoked currents in Xenopus oocytes
settings: EC90 ATP, mean ± S.E.M.
pIC50: −log10 of the molar value.
measured_property: pIC50

[[record]]
molecule = "COc1ccc(CC(=O)NC(N=C(NC#N)Nc2cccc3ncccc23)C(C)(C)C)cc1OC (centres unmarked)"
measured_property = "pIC50"
test_result = 5.80

[[record]]
molecule = "Cl.Clc1cccc(-c2nnnn2Cc2cccnc2)c1Cl.O"
measured_property = "pIC50"
test_result = 4.90


====

target_or_test_system: P2X7R point mutant Y295A (Homo sapiens, UniProt Q99572, I21V/M24R/N16P/N25R/Q22R/R20V/S23N/T19I/Y26L/Y295A)
Sequence (Q99572 1-595 N16P/T19I/R20V/I21V/Q22R/S23N/M24R/N25R/Y26L/Y295A): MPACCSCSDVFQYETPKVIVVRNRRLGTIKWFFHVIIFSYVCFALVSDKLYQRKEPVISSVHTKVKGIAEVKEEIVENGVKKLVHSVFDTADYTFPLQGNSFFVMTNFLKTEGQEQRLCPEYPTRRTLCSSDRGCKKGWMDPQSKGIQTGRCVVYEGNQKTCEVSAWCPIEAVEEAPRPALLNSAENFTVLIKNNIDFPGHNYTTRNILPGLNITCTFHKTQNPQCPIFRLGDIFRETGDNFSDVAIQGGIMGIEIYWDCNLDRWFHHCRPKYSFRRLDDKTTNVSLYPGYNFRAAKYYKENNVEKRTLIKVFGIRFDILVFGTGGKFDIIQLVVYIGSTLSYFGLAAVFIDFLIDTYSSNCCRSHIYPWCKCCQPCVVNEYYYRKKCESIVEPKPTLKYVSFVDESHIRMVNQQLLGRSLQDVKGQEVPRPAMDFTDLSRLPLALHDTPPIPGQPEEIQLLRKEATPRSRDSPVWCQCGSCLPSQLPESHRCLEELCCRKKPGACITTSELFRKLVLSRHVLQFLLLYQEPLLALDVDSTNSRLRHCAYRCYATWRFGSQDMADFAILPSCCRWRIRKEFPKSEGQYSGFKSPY
method_summary: Two-electrode voltage clamp of ATP-evoked currents in Xenopus oocytes
settings: EC90 ATP, mean ± S.E.M.
measured_property: IC50 (µM)

[[record]]
compound = "COc1ccc(CC(=O)NC(N=C(NC#N)Nc2cccc3ncccc23)C(C)(C)C)cc1OC (centres unmarked)"
measured_property = "IC50"
test_result = 0.158

[[record]]
compound = "Cl.Clc1cccc(-c2nnnn2Cc2cccnc2)c1Cl.O"
measured_property = "IC50"
test_result = 2

